# experiment: Drug distribution in rhesus monkey temporal cortex assessed as dissociation constant
# Assay type: ADME, tissue-based, Macaca mulatta
outcome measure: pKd
pKd here is simply -log10 of the concentration when that concentration is written in mol/L.

Just so you know, measured pKd for CN([11CH3])[C@]1(c2ccccc2Cl)CCCCC1=O came out at 5.15

====

# experiment: Binding affinity to GABA/BZ receptor (unknown origin) assessed as inhibition constant
# Parameters: species or system Homo sapiens
outcome measure: pKi
pKi here is simply -log10 of the concentration when that concentration is written in mol/L.

Just so you know, measured pKi for CCOC(=O)c1ncn2c1CN(C)C(=O)c1cc(N=[N+]=[N-])ccc1-2 came out at 9.15

====

# system tested: Neuronal acetylcholine receptor; alpha6/beta2 (Homo sapiens, UniProt P17787+Q15825)
# Sequence (P17787 whole entry): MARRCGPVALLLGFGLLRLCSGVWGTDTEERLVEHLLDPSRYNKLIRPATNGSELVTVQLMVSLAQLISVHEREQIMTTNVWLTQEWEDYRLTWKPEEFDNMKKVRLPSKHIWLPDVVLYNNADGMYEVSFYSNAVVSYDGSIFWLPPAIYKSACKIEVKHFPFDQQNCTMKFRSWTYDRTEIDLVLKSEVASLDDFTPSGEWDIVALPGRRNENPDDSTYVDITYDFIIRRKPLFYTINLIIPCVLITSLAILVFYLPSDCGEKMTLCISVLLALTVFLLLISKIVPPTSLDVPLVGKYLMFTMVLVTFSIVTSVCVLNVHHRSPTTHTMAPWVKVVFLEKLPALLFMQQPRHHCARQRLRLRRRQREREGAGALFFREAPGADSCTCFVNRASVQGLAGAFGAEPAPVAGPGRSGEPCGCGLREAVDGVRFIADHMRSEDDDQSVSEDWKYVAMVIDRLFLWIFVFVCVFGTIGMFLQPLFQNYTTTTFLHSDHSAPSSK
# Sequence (Q15825 whole entry): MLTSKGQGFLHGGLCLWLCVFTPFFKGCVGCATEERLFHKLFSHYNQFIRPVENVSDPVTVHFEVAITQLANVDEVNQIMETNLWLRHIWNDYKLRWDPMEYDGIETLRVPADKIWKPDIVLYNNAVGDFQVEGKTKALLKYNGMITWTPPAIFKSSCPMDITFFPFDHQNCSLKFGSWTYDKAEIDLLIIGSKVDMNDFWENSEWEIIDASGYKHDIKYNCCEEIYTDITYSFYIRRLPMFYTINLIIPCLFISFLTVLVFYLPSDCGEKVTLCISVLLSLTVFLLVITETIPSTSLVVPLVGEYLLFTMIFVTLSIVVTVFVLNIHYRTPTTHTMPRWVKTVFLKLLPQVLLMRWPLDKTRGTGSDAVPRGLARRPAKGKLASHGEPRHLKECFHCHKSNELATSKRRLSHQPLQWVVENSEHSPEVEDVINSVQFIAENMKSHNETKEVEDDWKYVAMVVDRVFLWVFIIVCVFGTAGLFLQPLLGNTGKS
# experiment: Binding affinity to nACh alpha6beta2 receptor (unknown origin) assessed as inhibition constant
Listing of recorded log10 of Ki by entry.
Scale: log10; quantity: Ki; unit before log: nM

Below, each entry is followed by its recorded log10 of Ki result.
INSERT INTO assay_data (compound, outcome_measure, numeric_readout) VALUES
  ('CN1CC=C[C@H]1COc1cccnc1[18F]', 'log10 of Ki', -0.30),
  ('[18F]CCCc1cncc(OC[C@@H]2CCN2)c1', 'log10 of Ki', -0.17),
  ('C[C@@H](C[11CH3])CCc1cnc(Cl)c(/C=C/c2ccncc2)c1', 'log10 of Ki', -1.11),
  ('CN1C2CCCC1C(c1cncc(-c3cccnc3[18F])c1)C2 (stereo unspecified)', 'log10 of Ki', -1.22),
  ('[18F]CCCc1cncc(OC[C@@H]2C=CCN2)c1', 'log10 of Ki', -0.44);

// next entry
Just so you know, measured log10 of Ki for CN1C2CCCC1C(c1cncc(-c3cccc([18F])n3)c1)C2 (stereo unspecified) came out at -0.02

====

# experiment: Dissociation constant, pKa of the compound
# Type: physicochemical
outcome measure: pKa
Lab note: record the figure alone, no unit after it.

Below, each entry is followed by its recorded pKa result.
INSERT INTO measurements (compound, numeric_readout) VALUES
  ('N#Cc1cc([18F])cc(C#Cc2ccccn2)c1', 1.89),
  ('C[C@H](c1ccc(Cl)cc1)n1cncc1C(=O)OCC[18F]', 3.76),
  ('CN1C2CCCC1C(c1cncc(-c3cccc([18F])n3)c1)C2 (stereo not given)', 9.24),
  ('Oc1ccc2c(c1)CCN(CCCCc1ccccc1[18F])C[C@@H]2O', 8.68),
  ('NC(=O)c1ccc(Oc2ccc(CN3CCC[C@H]3c3cccnc3)cc2)c([18F])c1', 8.45),
  ('CN([11CH3])Cc1ccccc1Sc1ccc(C#N)cc1N', 9.43);

Just so you know, measured pKa for [11CH3]OC(=O)c1cncn1Cc1ccccc1 came out at 4.08

Just so you know, measured pKa for O=S1(=O)c2cc(N3CCN4CCC3CC4)ccc2-c2cccc([18F])c21 came out at 8.68

Just so you know, measured pKa for [18F]c1ccc(OC[C@H]2CCN2)cn1 came out at 9.01

Just so you know, measured pKa for COc1cnc(OCc2cn(-c3ccc([18F])c(C)c3)nn2)nc1 came out at 0.73

Just so you know, measured pKa for CN([11CH3])[C@]1(c2ccccc2Cl)CCCCC1=O came out at 6.92

Just so you know, measured pKa for [11CH3]OCc1scnc1N1CCN(C[C@H]2COc3ccccc3O2)CC1 came out at 7.21

Just so you know, measured pKa for [11CH3]Oc1cccc(-c2c(O)c3c(I)cc(Cl)cc3[nH]c2=O)c1 came out at 8.83

Just so you know, measured pKa for [18F]CCCc1cncc(OC[C@@H]2CCN2)c1 came out at 9.09

Just so you know, measured pKa for [18F]c1ccc(C2CC3CCCC2N3)cn1 (single isomer, unassigned; (-)) came out at 9.28
